experiment: Stability in human HeLa cell homogenate assessed as half life by LC-MS/MS analysis; assay type: ADME, cell-based
Where a SMILES comes first, the peptide text is derived from it. Bridges are numbered along the chain shown (N, C = ends). [ ]: non-standard residue; d: D form. Ala(cPent) = N[C@@H](CC1CCCC1)C(=O)O; hPhe = N[C@@H](CCc1ccccc1)C(=O)O
observationType: half-life (min)
Respond numerically; units are min and should not be typed.

Ask: Record request: half-life value, item CC(=O)N[C@@H](CCCNC(=N)N)C(=O)N[C@@H](CCCNC(=N)N)C(=O)N[C@H]1CSSC[C@@H](C(=O)N[C@@H](CCCNC(=N)N)C(=O)N[C@@H](CCCNC(=N)N)C(N)=O)NC(=O)[C@H](C(C)C)NC(=O)[C@@H]2CCCN2C(=O)[C@H](CC(=O)O)NC(=O)[C@H](Cc2ccc(O)cc2)NC(=O)[C@H](CO)NC(=O)[C@H](CC2CCCC2)NC(=O)[C@H](CCc2ccccc2)NC(=O)[C@H](CC(C)C)NC(=O)[C@@H]2CCCN2C1=O (Ac-RRCPL[hPhe][Ala(cPent)]SYDPVCRR-NH2; disulfide 3-13)
Reply: 16

Values were extracted from ChEMBL document CHEMBL5131563.
